Reference for the values: the supplement of paper PMC3334620

- target_entity: Yer064c (UniProt P40041)
- Sequence: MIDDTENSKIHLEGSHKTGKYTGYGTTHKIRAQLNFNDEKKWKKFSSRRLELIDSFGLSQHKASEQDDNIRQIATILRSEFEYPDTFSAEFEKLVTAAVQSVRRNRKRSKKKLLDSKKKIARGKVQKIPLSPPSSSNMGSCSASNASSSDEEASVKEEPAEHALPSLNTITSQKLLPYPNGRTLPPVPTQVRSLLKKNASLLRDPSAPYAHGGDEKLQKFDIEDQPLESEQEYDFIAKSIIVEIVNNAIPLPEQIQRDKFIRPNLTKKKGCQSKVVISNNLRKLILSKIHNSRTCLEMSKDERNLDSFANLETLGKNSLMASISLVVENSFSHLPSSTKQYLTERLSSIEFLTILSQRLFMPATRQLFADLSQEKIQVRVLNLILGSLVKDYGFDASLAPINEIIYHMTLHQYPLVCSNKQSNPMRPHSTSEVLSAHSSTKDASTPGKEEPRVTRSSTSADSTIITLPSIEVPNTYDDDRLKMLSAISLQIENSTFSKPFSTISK
- assay_notes: PBM E-score (8-mer binding enrichment) (E-score (-0.5 to 0.5)); higher = stronger / more preferred TF binding
- measurement_context: protein concentration: 200 nM; construct: GST-full length
In all, about 33,000 sequences were measured (“E-score (-0.5 to 0.5)”: median about -0.036, highest 2% from about 0.37 on). The entries come from a sample that favours the highest values as a whole.
Lab note: class by PBM E-score, see category 1: < 0.008; category 2: ≥ 0.008 and < 0.2; category 3: ≥ 0.2

Study these solved cases before continuing.
>>> answer_label("GAGCGTCA")
"category 1"
>>> answer_label("AAATGAGG")
"category 1"
>>> answer_label("GAGAGTCA")
"category 3"

Request: Class (by measured PBM E-score) for CCTGACTA
Result: category 3

Request: Each sequence maps to one class by PBM E-score. Which class for CTCTCCAC ?
Result: category 1

Request: Category of ACTGACAC , please.
Result: category 2

Request: For CTGGAGTC , which PBM E-score bin applies?
Result: category 3

Request: Which category does the recorded PBM E-score put AAGACTAC in?
Result: category 3

Request: Which of the defined bands does the recorded PBM E-score of AAATGAGT sit within?
Result: category 3

Request: Tag the class for AGCCCGGG
Result: category 1

Request: Which class is correct for the following sequence? AGAAGTAT
Result: category 2

Request: Please classify: CCTGACTC
Result: category 3

Request: Exercise: read the entry AATTGACT and state which class it falls under.
Result: category 3

Request: Kindly state the category for this sequence: ATGGAGTG
Result: category 1

---

- target_entity: Yer064c (UniProt P40041)
- Sequence: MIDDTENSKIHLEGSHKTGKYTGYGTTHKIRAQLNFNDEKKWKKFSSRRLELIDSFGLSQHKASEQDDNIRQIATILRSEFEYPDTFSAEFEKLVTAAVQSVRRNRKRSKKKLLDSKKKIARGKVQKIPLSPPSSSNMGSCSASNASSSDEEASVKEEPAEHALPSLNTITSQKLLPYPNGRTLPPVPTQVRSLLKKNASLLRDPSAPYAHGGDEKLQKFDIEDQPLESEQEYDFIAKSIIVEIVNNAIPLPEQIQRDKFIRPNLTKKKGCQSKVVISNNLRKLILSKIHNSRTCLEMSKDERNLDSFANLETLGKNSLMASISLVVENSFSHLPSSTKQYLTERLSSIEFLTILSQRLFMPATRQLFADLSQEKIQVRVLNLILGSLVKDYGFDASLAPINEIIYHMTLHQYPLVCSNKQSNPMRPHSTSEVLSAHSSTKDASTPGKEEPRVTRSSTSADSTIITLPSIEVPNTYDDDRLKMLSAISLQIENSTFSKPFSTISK
- assay_notes: PBM E-score (8-mer binding enrichment) (E-score (-0.5 to 0.5)); higher = stronger / more preferred TF binding
- measurement_context: protein concentration: 200 nM; construct: GST-full length
Whole data set: some 33,000 sequences, median “E-score (-0.5 to 0.5)” near -0.036, cut for the highest 2% near 0.37. Only a selection was taken, and the highest values are over-represented in it overall.
Provide the recorded PBM E-score for the entries that follow.
Answers are plain numbers.

Here's what some known entries look like.
>>> recorded_measurement("GAGCACGC")
-0.163
>>> recorded_measurement("GTGTTCAA")
0.0916
>>> recorded_measurement("CCTTAGTA")
-0.0218

Record PBM E-score for all entries; do not skip any.
1. CAGGGGCC
2. ACTTAGTC
3. AGTACACA
4. CCTTAGAC
5. ACTTAGTG
6. ATCCGGAC
7. CCGTCCTC
8. ACTTAGTA

Result:
[-0.269, 0.435, 0.239, 0.063, 0.198, -0.228, -0.281, 0.162]

---

- target_entity: Yer064c (UniProt P40041)
- Sequence: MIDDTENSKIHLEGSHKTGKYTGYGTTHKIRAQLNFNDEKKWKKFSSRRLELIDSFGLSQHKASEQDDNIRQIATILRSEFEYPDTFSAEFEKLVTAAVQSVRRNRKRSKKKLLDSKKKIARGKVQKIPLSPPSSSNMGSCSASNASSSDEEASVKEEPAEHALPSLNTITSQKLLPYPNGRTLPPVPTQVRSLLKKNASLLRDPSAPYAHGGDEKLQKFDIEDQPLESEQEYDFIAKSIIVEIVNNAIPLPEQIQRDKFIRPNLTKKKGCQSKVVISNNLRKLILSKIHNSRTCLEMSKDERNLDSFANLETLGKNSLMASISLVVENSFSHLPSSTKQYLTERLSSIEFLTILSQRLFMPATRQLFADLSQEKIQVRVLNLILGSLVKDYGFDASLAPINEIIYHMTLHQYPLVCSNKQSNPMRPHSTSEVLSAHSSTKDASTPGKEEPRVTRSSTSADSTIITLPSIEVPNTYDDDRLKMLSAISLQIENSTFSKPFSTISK
- assay_notes: PBM E-score (8-mer binding enrichment) (E-score (-0.5 to 0.5)); higher = stronger / more preferred TF binding
- measurement_context: protein concentration: 200 nM; construct: GST-full length
Whole data set: some 33,000 sequences, median “E-score (-0.5 to 0.5)” near -0.036, cut for the highest 2% near 0.37. For the sample, the highest values were picked, then their nearest neighbours and some sequences at random.
measurement_label: PBM E-score

>>> recorded_measurement("CGGGAGAA")
-0.141
>>> recorded_measurement("GGGACTTA")
-0.0167
>>> recorded_measurement("ATGACGTA")
0.0562

Give PBM E-score for all sequences that follow.
1. AATGCTCA
2. AGGACTTA
3. CTGACTTA
4. TGAGGAAA
5. CAGACGAC
6. AGAGACAA
7. AATGAGCA
8. GAGAAGCC

Result:
1: 0.0674; 2: 0.234; 3: 0.407; 4: -0.0935; 5: 0.137; 6: -0.175; 7: -0.0702; 8: -0.201

// for each sequence in input: emit PBM E-score
1. GAGTTGCC
2. GACCCTGC
3. ACCGGAAG
4. GTAACTTA
5. CACAGATA
6. GTGACTTA
7. ATTACTAG

Result:
[-0.149, -0.262, -0.0509, 0.166, -0.0649, 0.443, 0.0126]

---

- target_entity: Yer064c (UniProt P40041)
- Sequence: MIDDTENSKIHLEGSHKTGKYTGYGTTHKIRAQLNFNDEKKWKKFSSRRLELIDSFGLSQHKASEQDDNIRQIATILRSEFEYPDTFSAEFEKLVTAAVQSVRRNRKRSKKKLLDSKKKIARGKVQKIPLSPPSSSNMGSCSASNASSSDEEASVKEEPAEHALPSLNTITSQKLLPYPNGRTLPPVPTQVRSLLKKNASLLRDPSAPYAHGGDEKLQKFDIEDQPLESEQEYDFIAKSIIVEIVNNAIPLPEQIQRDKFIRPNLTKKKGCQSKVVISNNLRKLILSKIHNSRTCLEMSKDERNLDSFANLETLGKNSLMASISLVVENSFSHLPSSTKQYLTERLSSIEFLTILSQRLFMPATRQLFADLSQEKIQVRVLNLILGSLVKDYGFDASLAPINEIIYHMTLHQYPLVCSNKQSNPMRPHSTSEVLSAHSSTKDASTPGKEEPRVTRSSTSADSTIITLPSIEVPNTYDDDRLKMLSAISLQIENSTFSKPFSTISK
- assay_notes: PBM E-score (8-mer binding enrichment) (E-score (-0.5 to 0.5)); higher = stronger / more preferred TF binding
- measurement_context: protein concentration: 200 nM; construct: GST-full length
The full ranking holds about 33,000 sequences; the median of “E-score (-0.5 to 0.5)” is about -0.036, and the highest 2% start at about 0.37. Many of the other results were omitted from the sample, so the highest values are more common in it than they were.
Assignment: determine reported PBM E-score for the given sequences.
Answers are plain numbers.

Field: example entries. Status: answers known.
>>> recorded_measurement("AATTGTCA")
0.0267
>>> recorded_measurement("CGAAGTCC")
0.0182
>>> recorded_measurement("TGAAGTCA")
0.445

List the reported PBM E-score of each sequence below.
1. AAGGACTG
2. GAGACACA
3. AAGGACGA
4. AGAAGTCG
5. GATGAACC
6. GGCCTACA

Result:
[0.184, 0.288, -0.0247, 0.207, 0.0652, -0.0963]

Each sequence below has a reported value. Please supply its PBM E-score.
1. CTTACCGA
2. GAGGACTC
3. AAGGACTT
4. CGAAGTCG
5. GAGGACAC
6. GGAAGTGA
7. AATGAATG
8. CATGAATA

Result:
[-0.0159, 0.387, 0.0394, 0.286, -0.221, 0.0158, -0.0293, 0.178]

Go through the list and state PBM E-score for each entry.
1. CGAAGTCA
2. GAATGAGA
3. AGAAGTCA
4. AAGGACTA

Result:
1. 0.437
2. 0.0143
3. 0.43
4. 0.375

Request: Write down the reported PBM E-score (system: Yer064c (UniProt P40041)) of TGAAGTAA
Result: 0.0152
